systemUnderTest: UniProtKB P31213
Sequence (P31213 whole entry): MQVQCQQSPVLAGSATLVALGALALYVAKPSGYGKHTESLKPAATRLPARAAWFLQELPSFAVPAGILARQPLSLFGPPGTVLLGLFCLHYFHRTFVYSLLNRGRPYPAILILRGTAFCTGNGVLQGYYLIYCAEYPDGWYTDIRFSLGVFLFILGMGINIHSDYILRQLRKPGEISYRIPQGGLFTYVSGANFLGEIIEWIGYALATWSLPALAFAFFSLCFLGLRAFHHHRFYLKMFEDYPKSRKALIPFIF
readoutName: pIC50
Please keep in mind that pIC50 is minus log10 of the molar concentration; only the number is needed.

# CC(C)(C)NC(=O)[C@H]1CC[C@H]2[C@@H]3CC[C@H]4NC(=O)C=C[C@]4(C)[C@H]3CC[C@]12C [FINASTERIDE] with UniProtKB P31213: pIC50 is 8.66

====

systemUnderTest: 3-oxo-5-alpha-steroid 4-dehydrogenase 1 (Homo sapiens, UniProt P18405)
Sequence (P18405 whole entry): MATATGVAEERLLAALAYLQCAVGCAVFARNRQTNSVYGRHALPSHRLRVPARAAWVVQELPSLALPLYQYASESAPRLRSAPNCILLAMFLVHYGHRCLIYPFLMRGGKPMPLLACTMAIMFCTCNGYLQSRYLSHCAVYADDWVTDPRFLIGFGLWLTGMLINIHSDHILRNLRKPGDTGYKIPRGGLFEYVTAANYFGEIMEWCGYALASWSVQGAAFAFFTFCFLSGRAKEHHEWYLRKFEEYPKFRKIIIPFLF
testSummary: Inhibition constant against recombinant Steroid 5-alpha-reductase type I expressed in CHO cells
Assay type: cell-based
Overview of recorded Ki for various compounds
The figure you give is taken to be in nM; do not add the unit.

# smilesText, readoutName, experimentalValue
rows = [
    ("CC1=C2CCc3cc(C)ccc3N2CCC1=O", "Ki", 5.8),
]

Field: next compound
# CC1=C2CCc3cc(Cl)ccc3N2CCC1=O with 3-oxo-5-alpha-steroid 4-dehydrogenase 1 (Homo sapiens, UniProt P18405): Ki is 2.7

====

systemUnderTest: UniProt:P18405
Sequence (P18405 whole entry): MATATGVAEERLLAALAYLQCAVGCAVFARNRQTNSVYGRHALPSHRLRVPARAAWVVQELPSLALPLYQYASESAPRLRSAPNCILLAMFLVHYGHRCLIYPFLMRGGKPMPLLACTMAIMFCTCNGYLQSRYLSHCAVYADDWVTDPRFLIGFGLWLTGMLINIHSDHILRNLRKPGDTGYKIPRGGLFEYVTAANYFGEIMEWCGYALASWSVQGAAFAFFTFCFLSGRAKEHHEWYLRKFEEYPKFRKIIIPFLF
testSummary: Inhibition of recombinant steroid 5-alpha-reductase type I expressed in CHO cells
Assay type: cell-based
pIC50: −log10 of the molar value.
Decide using pIC50: a value greater than or equal to 7 is met, a smaller one is not met.

# compound, categoryLabel
data = [
    ("O=C1C=CN2c3ccc(Cl)cc3CCC2C1 (configuration not stated)", "not met"),
]

Q: Decide: pIC50 of CC1=C2CCc3cc(C)ccc3N2CCC1=O >= 7?
Result: met

Q: Decide: pIC50 of C[C@@H]1C(=O)C=CN2c3ccccc3CCC12 (some centres not stated) >= 7?
Result: not met

Q: Decide: pIC50 of CC1Cc2cc(Cl)ccc2N2CCC(=O)C=C12 (configuration not stated) >= 7?
Result: not met

Q: Decide: pIC50 of Cc1ccc2c(c1)CCC1CC(=O)C=CN21 (configuration not stated) >= 7?
Result: not met

Q: Decide: pIC50 of C[C@@H]1CC2CC(=O)C=CN2c2ccc(Cl)cc21 (some centres not stated) >= 7?
Result: not met

Q: Decide: pIC50 of CC1=C2CCc3cc(Cl)ccc3N2CCC1=O >= 7?
Result: met

Q: Decide: pIC50 of C[C@H]1Cc2cc(Cl)ccc2N2C=CC(=O)CC12 (some centres not stated) >= 7?
Result: not met

Q: Decide: pIC50 of Cc1ccc2c(c1)CCC1=CC(=O)CCN12 >= 7?
Result: not met

Q: Decide: pIC50 of CC1=C2CCc3ccccc3N2CCC1=O >= 7?
Result: not met
